# experiment-description: Tmax in human at 300 mg, po administered as one-film coated tablet by high-performance liquid chromatography
# Type: ADME, organism-based
# cond: in vivo
measurement-name: Tmax
Note: a bare number is incomplete; add the unit.

Value of measured Tmax for the entry NC(=O)N1c2ccccc2CC(=O)c2ccccc21 [OXCARBAZEPINE] : 1 h

====

# experiment-description: AUC (0 to 72 hrs) in human at 150 mg, iv administered as single dose by high-performance liquid chromatography
# Type: ADME, organism-based
# Parameters: dose 150 mg, time < 72 hr, route intravenous
# cond: plasma
measurement-name: AUC(0-t) at 72 h (µM·h)
One number for each entry, in µM·h.

Value of measured AUC(0-t) at 72 h for the entry NC(=O)N1c2ccccc2CC(O)c2ccccc21 (racemic) [LICARBAZEPINE] : 109

====

# experiment-description: Drug excretion in human urine assessed as total amount of drug eliminated treated with oxcarbazepine at 300 mg, po administered as one-film coated tablet by high-performance liquid chromatography
# Assay type: ADME, organism-based
# cond: read-out: Ae
Record 1 (yes) whenever dose excreted is at 5% or higher; record 0 (no) when lower.

# example entries with known answers
molecule	label-value
NC(=O)N1c2ccccc2[C@@H](O)[C@H](O)c2ccccc21	0 (no)
NC(=O)N1c2ccccc2C[C@@H](O)c2ccccc21	0 (no)
NC(=O)N1c2ccccc2C[C@H](O[C@@H]2O[C@H](C(=O)O)[C@@H](O)[C@H](O)[C@H]2O)c2ccccc21	1 (yes)

input: Reported dose excreted reaches at least 5% for NC(=O)N1c2ccccc2C[C@@H](O[C@@H]2O[C@H](C(=O)O)[C@@H](O)[C@H](O)[C@H]2O)c2ccccc21 ?
output: 1 (yes)

input: Reported dose excreted reaches at least 5% for NC(=O)N1c2ccccc2C[C@H](O)c2ccccc21 [ESLICARBAZEPINE] ?
output: 1 (yes)

====

# experiment-description: Cmax in human treated with monohydroxy derivative of OXC at 250 mg, iv administered as infusion over 30 mins by high-performance liquid chromatography
# Assay type: ADME, organism-based
# Set-up: dose 250 mg, route intravenous
# cond: in vivo
measurement-name: Cmax (nM)
Numbers only, in nM.

compound	Cmax, nM
NC(=O)N1c2ccccc2[C@@H](O)[C@H](O)c2ccccc21	240

Value of measured Cmax for the entry NC(=O)N1c2ccccc2CC(=O)c2ccccc21 [OXCARBAZEPINE] : 80

====

# experiment-description: Renal clearance in human at 200 mg, iv administered as single dose by high-performance liquid chromatography
# Format: ADME, organism-based, Kidney
# cond: in vivo
measurement-name: CL renal (mL/min)
Answers are plain numbers, in mL/min.

Value of measured CL renal for the entry NC(=O)N1c2ccccc2CC(O)c2ccccc21 (racemic) [LICARBAZEPINE] : 28.3

====

# experiment-description: Total plasma clearance in human treated with monohydroxy derivative of OXC at 250 mg, iv administered as single dose by high-performance liquid chromatography
# Format: ADME, organism-based
measurement-name: clearance (mL/min)
Give bare numbers, in mL/min.

molecule	measured-value
NC(=O)N1c2ccccc2C[C@H](O)c2ccccc21 [ESLICARBAZEPINE]	42.7

Next item in the queue.
Value of measured clearance for the entry NC(=O)N1c2ccccc2C[C@@H](O)c2ccccc21 : 62.2
